assay-protocol: Cmax in monkey at 5 mg/kg, iv or 30 mg/kg, po
Assay type: ADME, organism-based, Macaca mulatta
experimental-parameters: rhesus monkey, in vivo
measured-attribute: Cmax (ng/mL)
Unit ng/mL implied. Number only.

According to the records, this compound `C=C(F)CN(CC)C(=O)[C@@]1(c2cccs2)C[C@H]1CN.Cl` displays Cmax of 2440

In plain terms, `C=CCN(CC=C)C(=O)[C@@]1(c2cccs2)C[C@H]1CN.Cl` has a documented Cmax of 905

###

tested-target: Sodium-dependent serotonin transporter (Homo sapiens, UniProt P31645)
Sequence (P31645 whole entry): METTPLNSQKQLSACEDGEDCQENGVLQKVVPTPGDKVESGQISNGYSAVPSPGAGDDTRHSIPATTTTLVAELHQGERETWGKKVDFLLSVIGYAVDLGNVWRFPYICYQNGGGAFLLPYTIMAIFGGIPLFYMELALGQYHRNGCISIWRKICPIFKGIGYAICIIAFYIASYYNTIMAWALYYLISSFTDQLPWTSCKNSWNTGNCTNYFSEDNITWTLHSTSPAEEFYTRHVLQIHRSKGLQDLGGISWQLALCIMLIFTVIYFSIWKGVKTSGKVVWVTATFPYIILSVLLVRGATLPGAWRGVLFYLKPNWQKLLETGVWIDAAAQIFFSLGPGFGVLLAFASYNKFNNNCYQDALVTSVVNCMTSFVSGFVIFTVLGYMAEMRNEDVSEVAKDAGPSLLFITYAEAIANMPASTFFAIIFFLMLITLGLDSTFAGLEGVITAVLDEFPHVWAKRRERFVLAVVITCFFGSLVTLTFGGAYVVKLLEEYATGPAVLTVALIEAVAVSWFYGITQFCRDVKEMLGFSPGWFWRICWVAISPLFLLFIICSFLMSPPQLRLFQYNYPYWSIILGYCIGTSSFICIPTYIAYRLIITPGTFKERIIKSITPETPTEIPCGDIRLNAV
Rule for this label: class 1 means IC50 is less than 40 nM; class 0 means IC50 is at least 40 nM.

In: Consider the compound `C#CCN(CC#C)C(=O)[C@@]1(c2cccs2)C[C@H]1CN` . Is its IC50 strictly less than 40 nM?
Out: class 1

In: Given the entry `C=CCN(Cc1nccs1)C(=O)[C@@]1(c2cccs2)C[C@H]1CN` , would its reported IC50 be below 40 nM?
Out: class 1

In: In the record for `C#CCN(CC)C(=O)[C@@]1(c2cccs2)C[C@H]1CN` , is IC50 less than 40 nM?
Out: class 0

In: Confirm or reject: IC50 of `C=C(F)CN(CC)C(=O)[C@@]1(c2cccs2)C[C@H]1CN` lies strictly below 40 nM
Out: class 0

In: Answer whether the compound `NC[C@@H]1C[C@@]1(C(=O)N1Cc2ccccc2C1)c1cccs1` has IC50 strictly less than 40 nM
Out: class 1

In: Lab note: confirm whether the reported IC50 for this compound is below 40 nM, equality not counting. compound: `C=CCN(C(=O)[C@@]1(c2cccs2)C[C@H]1CN)C1CC1`
Out: class 0

In: In plain terms, does `C=CCN(CC=C)C(=O)[C@@]1(c2cccs2)C[C@H]1CN` come in under 40 nM for IC50?
Out: class 1

###

IC50, Sodium-dependent noradrenaline transporter (Homo sapiens, UniProt P23975), per-entry values.
// note: answer is a bare numeric in nM

IC50 in this record for `C=CCN(Cc1nccs1)C(=O)[C@@]1(c2cccs2)C[C@H]1CN` : 13

For this compound ( `C=CCN(CC)C(=O)[C@@]1(c2cccs2)C[C@H]1CN` ), measured IC50 is 15

IC50 in this record for `NC[C@@H]1C[C@@]1(C(=O)N1Cc2ccccc2C1)c1cccs1` : 21

Kindly note the recorded IC50 for `C=CCN(CC=C)C(=O)[C@@]1(c2cccs2)C[C@H]1CN` , which is 2.3

compound `C=C(F)CN(CC)C(=O)[C@@]1(c2cccs2)C[C@H]1CN` , IC50 observed: 4.4

Entry `C#CCN(CC)C(=O)[C@@]1(c2cccs2)C[C@H]1CN` , IC50 reported as 19

For `C=CCN(C(=O)[C@@]1(c2cccs2)C[C@H]1CN)C1CC1` the compound record lists IC50 as 17

###

Field: AUC. Provide a value for each of the molecules that follow.
assay-protocol: AUC in Beagle dog at 5 mg/kg, iv or 30 mg/kg, po
Type: ADME, organism-based, Canis lupus familiaris
experimental-parameters: plasma
Answer with a number only, understood to be in ng·h/mL.

Record summary for `C=CCN(CC=C)C(=O)[C@@]1(c2cccs2)C[C@H]1CN.Cl` : reported AUC = 17100

The recorded AUC for entry `C=C(F)CN(CC)C(=O)[C@@]1(c2cccs2)C[C@H]1CN.Cl` equals 47500
